- stated conditions: in ethanol, 298.15 K
quantity measured: solubility (mole fraction)

# smiles text, data value
records = [
    ("Nc1ccc(Oc2ccc(N)cc2)cc1", 0.00089),
]

---

- stated conditions: in DMAc, 308.15 K

# smiles text, solubility (mole fraction)
rows = [
    ("Nc1ccc(Oc2ccc(N)cc2)cc1", 0.152),
]

---

- stated conditions: in DMF, 318.15 K

# smiles text, solubility (mole fraction)
measured = [
    ("Nc1ccc(Oc2ccc(N)cc2)cc1", 0.138),
]

---

- stated conditions: in 2-ethoxyethanol, 318.15 K
quantity measured: solubility (mole fraction)

# smiles text, data value
data = [
    ("Nc1ccc(Oc2ccc(N)cc2)cc1", 0.0486),
]

---

- stated conditions: in DMF, 313.15 K

# smiles text, solubility (mole fraction)
records = [
    ("Nc1ccc(Oc2ccc(N)cc2)cc1", 0.132),
]

---

- stated conditions: in ethanol, 308.15 K
quantity measured: solubility (mole fraction)

# smiles text, data value
measured = [
    ("Nc1ccc(Oc2ccc(N)cc2)cc1", 0.00143),
]

---

- stated conditions: in 2-ethoxyethanol, 308.15 K

# smiles text, solubility (mole fraction)
measured = [
    ("Nc1ccc(Oc2ccc(N)cc2)cc1", 0.0394),
]

---

- stated conditions: in DMSO, 323.15 K

# smiles text, solubility (mole fraction)
rows = [
    ("Nc1ccc(Oc2ccc(N)cc2)cc1", 0.187),
]

---

- stated conditions: in ethanol, 283.15 K

# smiles text, solubility (mole fraction)
records = [
    ("Nc1ccc(Oc2ccc(N)cc2)cc1", 0.000434),
]

---

- stated conditions: in DMAc, 323.15 K

# smiles text, solubility (mole fraction)
records = [
    ("Nc1ccc(Oc2ccc(N)cc2)cc1", 0.168),
]

---

- stated conditions: in ethanol, 288.15 K
quantity measured: solubility (mole fraction)

# smiles text, data value
rows = [
    ("Nc1ccc(Oc2ccc(N)cc2)cc1", 0.000549),
]

---

- stated conditions: in 2-ethoxyethanol, 298.15 K

# smiles text, solubility (mole fraction)
records = [
    ("Nc1ccc(Oc2ccc(N)cc2)cc1", 0.0329),
]

---

- stated conditions: in DMF, 283.15 K
quantity measured: solubility (mole fraction)

# smiles text, data value
data = [
    ("Nc1ccc(Oc2ccc(N)cc2)cc1", 0.104),
]

---

- stated conditions: in DMSO, 318.15 K
quantity measured: solubility (mole fraction)

# smiles text, data value
rows = [
    ("Nc1ccc(Oc2ccc(N)cc2)cc1", 0.179),
]

---

- stated conditions: in DMSO, 308.15 K

# smiles text, solubility (mole fraction)
records = [
    ("Nc1ccc(Oc2ccc(N)cc2)cc1", 0.165),
]

---

- stated conditions: in methanol, 323.15 K
quantity measured: solubility (mole fraction)

# smiles text, quantity measured, data value
measured = [
    ("Nc1ccc(Oc2ccc(N)cc2)cc1", "solubility (mole fraction)", 0.00416),
]

---

- stated conditions: in DMF, 298.15 K
quantity measured: solubility (mole fraction)

# smiles text, data value
measured = [
    ("Nc1ccc(Oc2ccc(N)cc2)cc1", 0.115),
]

---

- stated conditions: in DMSO, 298.15 K

# smiles text, solubility (mole fraction)
data = [
    ("Nc1ccc(Oc2ccc(N)cc2)cc1", 0.153),
]
